Cited source: paper PMC7318034

PROCEDURE_TEXT: Part C single-dose drug-drug interaction plasma PK in healthy subjects
MEASUREMENT_PARAMETERS: human, in vivo, 1 g, Vss, part C cohort 13, SUL 1 g alone, day 1

| CHEMICAL_STRING | RESULT_UNITS | Vd |
| --- | --- | --- |
| CC1(C)[C@H](C(=O)O)N2C(=O)C[C@H]2S1(=O)=O | L | 18 |

---

PROCEDURE_TEXT: Urine PK (urinary excretion, renal clearance) in healthy subjects
MEASUREMENT_PARAMETERS: human, urine, intravenous, 1 g, CLr, median, part A cohort 8 (elderly), single 1 g, n=5

| MOLECULE | CL renal, mL/min |
| --- | --- |
| CC1=C[C@@H]2CN(C(=O)N2OS(=O)(=O)O)[C@@H]1C(N)=O [DUR, Durlobactam] | 66 |
